System: C57BL/6J mice (mild hyperglycemic)
Test: In vivo glucose reduction, acute single dose 120-min time-course, i.p. route
Design: species or system mouse; unit not given here
Conditions: male C57BL/6J mice, 20 nM/kg i.p., 30 min
Measurement kind: blood glucose levels
When you answer, write just the number.

-- ask State recorded blood glucose levels with C57BL/6J mice (mild hyperglycemic), entry CCc1cc(OC)ccc1-c1ccc(CC(NC(=S)[C@H](CC(=O)O)NC(=O)[C@H](CO)NC(=O)[C@@H](NC(=O)C(C)(Cc2ccccc2F)NC(=O)[C@@H](NC(=O)CNC(=O)C(CCC#N)NC(=O)C(C)(C)NC(=O)[C@@H](N)Cc2c[nH]cn2)[C@H](C)O)[C@H](C)O)C(=S)NC(CCCc2ccccc2F)C(N)=O)cc1 (single isomer, unassigned) [Seq. ID. 180] , no comment.
-- reply 122

The reported measurements were obtained from patent US8883963B2.
